# systemName: furin, P09958;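 note: purified furin at 1:10 enzyme:substrate in 50 mM HEPES pH 7.5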
# Sequence (P09958 whole entry): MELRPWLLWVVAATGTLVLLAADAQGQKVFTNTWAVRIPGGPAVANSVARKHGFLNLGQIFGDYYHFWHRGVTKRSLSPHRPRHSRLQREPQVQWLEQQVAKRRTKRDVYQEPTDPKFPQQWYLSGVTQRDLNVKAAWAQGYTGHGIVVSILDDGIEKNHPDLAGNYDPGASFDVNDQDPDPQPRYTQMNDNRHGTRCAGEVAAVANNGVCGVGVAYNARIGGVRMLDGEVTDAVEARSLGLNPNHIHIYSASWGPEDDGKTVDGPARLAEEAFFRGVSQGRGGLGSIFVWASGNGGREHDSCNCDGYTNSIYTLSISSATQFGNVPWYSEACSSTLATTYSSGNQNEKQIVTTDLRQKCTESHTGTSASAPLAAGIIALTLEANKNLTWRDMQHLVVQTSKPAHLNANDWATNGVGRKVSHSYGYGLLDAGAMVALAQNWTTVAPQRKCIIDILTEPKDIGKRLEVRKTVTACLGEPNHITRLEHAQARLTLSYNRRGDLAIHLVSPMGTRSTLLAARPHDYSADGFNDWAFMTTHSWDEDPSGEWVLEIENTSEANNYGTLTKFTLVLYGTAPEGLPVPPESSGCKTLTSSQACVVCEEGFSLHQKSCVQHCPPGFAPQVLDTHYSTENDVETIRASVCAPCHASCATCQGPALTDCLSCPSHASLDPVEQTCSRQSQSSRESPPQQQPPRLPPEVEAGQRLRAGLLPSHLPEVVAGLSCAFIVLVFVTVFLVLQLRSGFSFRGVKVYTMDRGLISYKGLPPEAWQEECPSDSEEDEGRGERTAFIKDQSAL
# assayNotes: furin cleavage Z-score vs untreated control; higher = more cleavage, active = 3.5 or more, inactive = 1 or less, 8 variable residues between constant flanks
# experimentalSetup: 15 min
Some of the results follow. No count for the full screen is at hand.
parameter: furin cleavage Z-score
Respond numerically, and do not add a unit to the figure.

Fill in: furin cleavage Z-score of CARRKRSAALAGNASASA [FS-2371] is ___ 11.7

Fill in: furin cleavage Z-score of CAPPRRKRRQAGNASASA [FS-71] is ___ 9.48

Fill in: furin cleavage Z-score of CAGPARSHRSAGNASASA [FS-1525] is ___ 5.21

Fill in: furin cleavage Z-score of CASTPCSAALAGNASASA [HC2543] is ___ -0.501

Fill in: furin cleavage Z-score of CARSRRALPPAGNASASA [FS-2239] is ___ 7.46

Fill in: furin cleavage Z-score of CAEVPCHRPMAGNASASA [HC2406] is ___ 1.03

Fill in: furin cleavage Z-score of CALLQTASRQAGNASASA [HC1028] is ___ 0.569

Fill in: furin cleavage Z-score of CAHEMEECSQAGNASASA [HC1795] is ___ -0.825

Fill in: furin cleavage Z-score of CAQSLRQRKSAGNASASA [FS-915] is ___ 0.0646

Fill in: furin cleavage Z-score of CALLADARVCAGNASASA [HC523] is ___ -0.28

Fill in: furin cleavage Z-score of CAEDRDRSELAGNASASA [HC488] is ___ 1.63

Fill in: furin cleavage Z-score of CARSRRAQPPAGNASASA [FS-2814] is ___ 4.42

Fill in: furin cleavage Z-score of CALLARDRRQAGNASASA [FS-1025] is ___ 9.4

Fill in: furin cleavage Z-score of CAITARYHRDAGNASASA [FS-805] is ___ 3.38

Fill in: furin cleavage Z-score of CARRPRLSDRAGNASASA [FS-3059] is ___ -0.45

Fill in: furin cleavage Z-score of CARRKRHDIAAGNASASA [FS-3053] is ___ 8.72

Fill in: furin cleavage Z-score of CARRPRDDDSAGNASASA [FS-3057] is ___ -0.299

Fill in: furin cleavage Z-score of CAEVPCHEPSAGNASASA [HC2372] is ___ 1.11

Fill in: furin cleavage Z-score of CADIEVVTSTAGNASASA [HC2284] is ___ -0.333

Fill in: furin cleavage Z-score of CATKLITWGAAGNASASA [HC651] is ___ -0.214

Fill in: furin cleavage Z-score of CAYLLRRRRNAGNASASA [FS-1620] is ___ 4.73

Fill in: furin cleavage Z-score of CARSRRLAEQAGNASASA [FS-1933] is ___ 2.91

Fill in: furin cleavage Z-score of CARAQRSAGAAGNASASA [FS-1994] is ___ 0.0646

Fill in: furin cleavage Z-score of CAEVPCHRKSAGNASASA [HC2394] is ___ 1.67

Fill in: furin cleavage Z-score of CACGPVYCFTAGNASASA [HC412] is ___ 0.0869

Fill in: furin cleavage Z-score of CARKNRPAGAAGNASASA [FS-1729] is ___ -0.752

Fill in: furin cleavage Z-score of CARNHRDAGAAGNASASA [FS-1756] is ___ 0.109

Fill in: furin cleavage Z-score of CAYLLPRRGPAGNASASA [HC178] is ___ -0.768
